# systemTested: Lethal factor (Bacillus anthracis, UniProt P15917)
assayMetric: Ki
Could you kindly put the unit after your number?

Lookup: What Ki value was documented for this molecule, Cc1cc(S(=O)(=O)N[C@@H](C(=O)NO)C2CCOCC2)ccc1F ?
Found: 24 nM

----------
# systemTested: Lethal factor (Bacillus anthracis, UniProt P15917)
# Sequence (P15917 whole entry): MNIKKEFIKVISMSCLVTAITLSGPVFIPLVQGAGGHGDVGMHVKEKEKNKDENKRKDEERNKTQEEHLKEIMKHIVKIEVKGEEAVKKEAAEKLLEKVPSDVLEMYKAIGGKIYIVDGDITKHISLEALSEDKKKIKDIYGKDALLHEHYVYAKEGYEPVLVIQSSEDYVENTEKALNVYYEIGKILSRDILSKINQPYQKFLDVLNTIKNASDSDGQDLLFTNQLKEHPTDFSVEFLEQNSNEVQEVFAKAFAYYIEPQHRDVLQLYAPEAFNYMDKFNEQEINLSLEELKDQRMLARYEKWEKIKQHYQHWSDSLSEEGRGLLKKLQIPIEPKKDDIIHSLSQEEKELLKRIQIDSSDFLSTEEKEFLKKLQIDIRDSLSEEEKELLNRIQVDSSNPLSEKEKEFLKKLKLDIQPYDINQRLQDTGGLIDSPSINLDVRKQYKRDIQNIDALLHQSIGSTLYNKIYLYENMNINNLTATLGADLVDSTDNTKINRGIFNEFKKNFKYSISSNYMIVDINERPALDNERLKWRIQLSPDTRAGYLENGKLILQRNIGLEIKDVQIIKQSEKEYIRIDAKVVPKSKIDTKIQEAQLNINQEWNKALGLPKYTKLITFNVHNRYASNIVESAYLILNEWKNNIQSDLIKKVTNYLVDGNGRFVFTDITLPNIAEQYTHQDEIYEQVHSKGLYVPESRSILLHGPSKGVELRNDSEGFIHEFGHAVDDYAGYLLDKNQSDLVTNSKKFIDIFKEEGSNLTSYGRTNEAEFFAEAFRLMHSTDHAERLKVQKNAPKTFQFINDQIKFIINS
# assayComment: Non-competitive inhibition of Bacillus anthracis lethal factor using 6.25 uM MCA-KKVYPYPME[dnp]K amide as substrate after 30 mins by Eadie-Hofstee plot analysis
assayMetric: pIC50
Would you please state pIC50, meaning minus log10 of the concentration in mol/L, as a bare number?

COc1ccccc1CCC(=O)Nc1ccc2nc(C)cc(N)c2c1; 6.14

Okay, next one:
Lookup: Look at this compound and give its reported pIC50. Cc1cc(N)c2cc(NC(=O)c3ccc(-c4ccc5ncccc5c4)cc3)ccc2n1
Found: 5.90

Where do the numbers come from? From ChEMBL document CHEMBL3098056.
